- TARGET OR TEST SYSTEM: T1, human BCMA protein (human, UniProt Q02223 1-54, limits assumed)
- T1 construct: also called hBCMA; Antigen BCMA
- T1 sequence (looked up): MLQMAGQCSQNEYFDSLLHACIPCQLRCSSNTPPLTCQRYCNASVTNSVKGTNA
- TEST NAME: SPR (Biacore T200), antibody captured by anti-hIgG, human BCMA as analyte, 1:1 model
Recorded pKd for the following binders
Please express pKd as -log10 of the molar concentration.

In plain terms, 1A10-Fc (antibody, human IgG1, V domains shown, also called anti-human BCMA VHH-Fc chimeric antibody 1A10-Fc) VH: QVQLVESGGGSVQAGGSLRLSCAASGYSSNVACMAWYRQAPGKEREWVATIVADFGTTNYAASVKGRFTISQDNAKNTVYLQMNSLKPEDSAMYYCAATQRGGIDWCDEINYWGQGTLVTVSS has a documented pKd of 9.03

// field: pKd; key: 1A10-V1 (antibody, human IgG1, V domains shown, Humanized VHH fused to human IgG1 Fc; also called humanized antibody 1A10-V1) VH: QVQLVESGGGLVQPGGSLRLSCAASGYSSNVACMAWYRQAPGKGLEWVATIVADFGTTNYAASVKGRFTISQDNSKNTVYLQMNSLRAEDTAVYYCAATQRGGIDWCDEINYWGQGTLVTVSS ; value = 9.47

Here is the next item to consider.
Entry 1A11-V2 (antibody, human IgG1, V domains shown, Humanized VHH fused to human IgG1 Fc; also called humanized antibody 1A11-V2) VH: QVQLVESGGGLVQPGGSLRLSCAASGFTFNSACMGWFRQAPGKEREGVSRIETGYGGTVYADSVKGRFTISRDNSKNTVYLQMNSLKAEDTAVYYCAAKRSWCTPTWWHELDYNYWGQGTQVTVSS , pKd reported as 8.36
